# protocol text: Antioxidant activity assessed by singlet oxygen scavenging assay
# Type: functional
assay metric: pIC50
When answering, recall that pIC50 equals minus log10 of the concentration in mol/L, and write that number alone.

Task: Fill in reported pIC50 for this entry: CCCOC(=O)c1cc(O)c(O)c(O)c1 [PROPYL GALLATE]
Result: 4.18

Task: Look up pIC50 of "O=C(O)c1cc(O)c(O)c(O)c1" and report it.
Result: 4.16

Task: Tell me its pIC50 given O=C(OC[C@@H]1OC(O)[C@](O)(COC(=O)c2cc(O)c(O)c(O)c2)[C@H]1O)c1cc(O)c(O)c(O)c1 (some centres undefined) as the entry.
Result: 4.34

Task: # return recorded pIC50 for input "O=C1O[C@H]([C@@H](O)CO)C(O)=C1O"
Result: 3.92
